The reported numbers originate from patent US20190083521A1.

# System: SKM-1 (non-MLLr) cells
# protocol description: Example 7 retest: EPZ-5676 pre-treatment, second compound 72 h, Cell Titer Glo, growth inhibition
# Format: cell-based, human
# applied conditions: SKM-1 (non-MLLr); KRAS K117N (homo); second compound, 72 h
GI50 for assorted compounds
Number in nM, nothing else.

Form field: GI50 recorded for "CC(=O)Nc1cccc(-n2c(=O)n(C3CC3)c(=O)c3c(Nc4ccc(I)cc4F)n(C)c(=O)c(C)c32)c1" with SKM-1 (non-MLLr) cells (enter value)
1

###

# System: MOLM-13 (MLL-AF9) cells
# protocol description: Example 7 retest: EPZ-5676 pre-treatment, second compound 72 h, Cell Titer Glo, growth inhibition
# Format: cell-based, human
# applied conditions: Homo sapiens; MOLM-13 (MLL-AF9); Ras mutation status: None known; second compound, 72 h
measured attribute: GI50 (µM)
Number in µM, nothing else.

In the examples that follow, each entry is paired with its recorded GI50.
cpd smiles | measurement target | numeric result
CC(=O)Nc1cccc(-n2c(=O)n(C3CC3)c(=O)c3c(Nc4ccc(I)cc4F)n(C)c(=O)c(C)c32)c1 | MOLM-13 (MLL-AF9) cells | 0.01
Cn1cnc2c(F)c(Nc3ccc(Br)cc3F)c(C(=O)NOCCO)cc21 | MOLM-13 (MLL-AF9) cells | 0.72
Cn1cnc2c(F)c(Nc3ccc(Br)cc3Cl)c(C(=O)NOCCO)cc21 | MOLM-13 (MLL-AF9) cells | 1.25
Cn1nccc1Nc1nccc(-c2ccn([C@H](CO)c3ccc(Cl)c(F)c3)c(=O)c2)n1 | MOLM-13 (MLL-AF9) cells | 3.08
O=C(Nc1ccc2[nH]nc(-c3ccncc3)c2c1)[C@@H]1CCN(CC(=O)N2CCN(c3ccc(-c4ncccn4)cc3)CC2)C1 | MOLM-13 (MLL-AF9) cells | 0.21

Please examine the following record next.
Sample "CC(C)Nc1cc(-c2c[nH]c(C(=O)N[C@H](CO)c3cccc(Cl)c3)c2)c(Cl)cn1" — what was its GI50?
1.67

###

# Tested on: SKM-1 (non-MLLr) cells
# protocol description: Example 7 retest: EPZ-5676 pre-treatment, second compound 72 h, Cell Titer Glo, growth inhibition
# Assay type: cell-based, human
# applied conditions: SKM-1 (non-MLLr); KRAS K117N (homo); second compound, 72 h
measured attribute: GI50
Put down the number, then write its unit next to it.

cpd smiles | GI50
Cn1cnc2c(F)c(Nc3ccc(Br)cc3F)c(C(=O)NOCCO)cc21 | 10 nM
CC(C)Nc1cc(-c2c[nH]c(C(=O)N[C@H](CO)c3cccc(Cl)c3)c2)c(Cl)cn1 | 440 nM
Cn1cnc2c(F)c(Nc3ccc(Br)cc3Cl)c(C(=O)NOCCO)cc21 | 20 nM
O=C(Nc1ccc2[nH]nc(-c3ccncc3)c2c1)[C@@H]1CCN(CC(=O)N2CCN(c3ccc(-c4ncccn4)cc3)CC2)C1 | 20 nM

Sample "Cn1nccc1Nc1nccc(-c2ccn([C@H](CO)c3ccc(Cl)c(F)c3)c(=O)c2)n1" — what was its GI50?
270 nM
